System: NCI-H522 lung
Test: NCI-60 one-dose screen, 48 h (100 = growth as untreated, 0 = no growth, -100 = all killed)
Details: 10 µM unless noted
About 83,000 compounds went through this panel and 20% of them were active in at least one assay; those are over-represented in the sample as a whole.
growth reference
Dear colleague, please return just the value in %, with no unit written.

Returns the measured growth for the input molecule. Input: Oc1ccccc1-c1nnc(SCc2ccc(O)c3ncccc23)n1-c1ccccc1
-6.01

I have this molecule here, N/C(=N\OC(=O)CSc1nc2ccccc2s1)c1ccc(Cl)cc1 , and I need its recorded growth.
95

Endpoint output: growth of O=C(/C=C/c1cccc(O)c1)c1ccc(O)cc1 . Value?
65.6

For the molecule shown here, CCNC(=O)Oc1ccc(/C(=C(/C)c2ccc(Cl)cc2)c2ccc(OCCN(C)C)cc2)cc1 , give the reported growth.
88.7

Quick one: growth for COc1ccc(CN2C(=O)/C(=C/c3nc(CO)cs3)SC2=S)cc1 ?
35.6

Return reported growth; argument: C=C(C)C(=O)O[C@H]1C[C@@]2(C)OC(=CC2=O)/C(C)=C\[C@H]2OC(=O)C(=C)[C@H]12
-72
